- System: ncRNAs (SEQ ID NO 28-89)
- TEST SUMMARY: ncRNA arrays of melanocytes, keratinocytes, normal skin, melanoma cell lines and patient samples
- Set-up: species or system human
- TEST SETTINGS: melanoma patient 21 sample compared to normal skin
Recorded measurements of ncRNA array expression, patient 21, one per entry
PROPERTY MEASURED: ncRNA array expression, patient 21

| SUBSTANCE | RESULT |
| --- | --- |
| SEQ ID NO 80 (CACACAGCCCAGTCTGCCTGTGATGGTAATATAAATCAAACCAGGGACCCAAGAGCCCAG; listed as DNA, chemistry not given here; listed as Homo sapiens) | −1.5287 |
| SEQ ID NO 75 (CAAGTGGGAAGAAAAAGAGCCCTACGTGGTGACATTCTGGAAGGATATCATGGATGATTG; listed as DNA, chemistry not given here; listed as Homo sapiens) | 1.592 |
| SEQ ID NO 59 (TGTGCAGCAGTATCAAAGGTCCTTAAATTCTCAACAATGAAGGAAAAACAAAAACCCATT; listed as DNA, chemistry not given here; listed as Homo sapiens) | −1.263 |

* * *

- Tested on: ncRNAs (SEQ ID NO 28-89)
- TEST SUMMARY: ncRNA arrays of melanocytes, keratinocytes, normal skin, melanoma cell lines and patient samples
- Parameters: species or system human
- TEST SETTINGS: melanoma patient 9 sample compared to normal skin
- Experimental: An ncRNA array platform that contains over 10,000 putative (>200 nt) ncRNAs including most of the known ncRNAs in mouse and human was conducted to evaluate ncRNAs within melanoma. Lack of coding potential was estimated by an algorithm that scores various characteristics of protein-coding genes, including open reading frame length, synonymous/non-synonymous base substitution rates and similarity to known proteins. […]
# reported ncRNA array expression, patient 9; entries follow

| SUBSTANCE | ncRNA array expression, patient 9 |
| --- | --- |
| SEQ ID NO 40 (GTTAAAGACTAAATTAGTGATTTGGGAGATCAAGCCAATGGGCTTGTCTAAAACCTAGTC; listed as DNA, chemistry not given here; listed as Homo sapiens) | 0.4625 |
| SEQ ID NO 33 (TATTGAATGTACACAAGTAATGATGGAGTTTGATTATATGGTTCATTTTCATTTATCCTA; DNA, backbone and methylation of C not given here; listed as Homo sapiens) | 0.3136 |
| SEQ ID NO 85 (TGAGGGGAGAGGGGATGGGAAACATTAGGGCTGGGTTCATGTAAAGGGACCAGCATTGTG; listed as DNA, chemistry not given here; listed as Homo sapiens) | −3.15 |

* * *

- Tested on: ncRNAs (SEQ ID NO 28-89)
- TEST SUMMARY: ncRNA arrays of melanocytes, keratinocytes, normal skin, melanoma cell lines and patient samples
- Parameters: species or system human
- TEST SETTINGS: melanoma patient 27 sample compared to normal skin
ncRNA array expression, patient 27 strictly less than 4 = 1. Otherwise -1.

| SUBSTANCE | CLASS LABEL |
| --- | --- |
| SEQ ID NO 36 (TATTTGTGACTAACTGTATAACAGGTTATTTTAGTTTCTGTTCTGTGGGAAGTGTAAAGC; listed as DNA, chemistry not given here; listed as Homo sapiens) | -1 |
| SEQ ID NO 35 (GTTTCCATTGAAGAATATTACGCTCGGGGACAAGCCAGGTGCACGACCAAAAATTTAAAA; DNA, backbone and methylation of C not given here; listed as Homo sapiens) | 1 |
| SEQ ID NO 41 (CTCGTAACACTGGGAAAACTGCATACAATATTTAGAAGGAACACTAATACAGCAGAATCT; listed as DNA, chemistry not given here; listed as Homo sapiens) | 1 |
| SEQ ID NO 75 (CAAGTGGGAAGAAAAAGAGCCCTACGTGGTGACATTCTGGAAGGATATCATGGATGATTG; listed as DNA, chemistry not given here; listed as Homo sapiens) | 1 |
| SEQ ID NO 86 (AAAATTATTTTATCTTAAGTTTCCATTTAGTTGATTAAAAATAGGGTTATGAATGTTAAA; listed as DNA, chemistry not given here; listed as Homo sapiens) | -1 |
| SEQ ID NO 54 (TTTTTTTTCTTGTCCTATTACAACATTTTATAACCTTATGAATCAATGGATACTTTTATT; listed as DNA, chemistry not given here; listed as Homo sapiens) | -1 |
| SEQ ID NO 50 (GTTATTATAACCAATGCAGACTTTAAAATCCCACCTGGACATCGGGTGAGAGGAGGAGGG; listed as DNA, chemistry not given here; listed as Homo sapiens) | 1 |
| SEQ ID NO 64 (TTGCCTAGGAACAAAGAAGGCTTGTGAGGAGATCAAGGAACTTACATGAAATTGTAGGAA; listed as DNA, chemistry not given here; listed as Homo sapiens) | 1 |
| SEQ ID NO 42 (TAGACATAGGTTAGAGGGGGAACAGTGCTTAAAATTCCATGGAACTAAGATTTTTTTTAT; listed as DNA, chemistry not given here; listed as Homo sapiens) | 1 |
